- Read-out: Thrombomodulin, THBD (gene 7056)
- test: BSK_CASM3C_Thrombomodulin: BioMAP Diversity Plus: CASM3C Assay for Thrombomodulin Biomarker Activity (AID 2283051);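 further: thrombomodulin protein level measured by ELISA 24 h after dosing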
- condition-info: primary human coronary artery smooth muscle cells; actives raise or lower the signal
Activity calls are given as the source filed them. How the source made its calls: active means hit-call score of the fitted dose curve at least 0.9, where 1 is the maximum; inactive means score below 0.9.
Labels: active, inactive

>>> label("Cc1occc1C(=O)Nc1ccc(C(=O)N2CCC(F)(F)/C(=C\\C(=O)N3CCC(N4CCCCC4)CC3)c3ccccc32)cc1")
"inactive"
>>> label("Cc1cc2c(cc1C(F)(F)F)N(C(=O)Nc1ccc(Oc3cccnc3C)nc1)CC2")
"active"
>>> label("CCO[Si](CCCNC(N)=O)(OCC)OCC")
"inactive"

----------
- test: ATG_EGR_CIS: Attagene CIS-FACTORIAL HepG2 Assay for human Early Growth Response 1 (EGR1) (AID 2282938)
- condition-info: HepG2 Attagene CIS-FACTORIAL EGR reporter mRNA; actives raise or lower the signal
Active and inactive are the calls of the source. How the source made its calls: active means hit-call score of the fitted dose curve at least 0.9, where 1 is the maximum; inactive means score below 0.9.
Labels: active, inactive

>>> label("CC[C@H](NC(=O)c1cc(F)ccc1NS(=O)(=O)c1cccc2cccnc12)c1ccccc1")
"inactive"
>>> label("Cc1cn([C@H]2C[C@H](N=[N+]=[N-])[C@@H](CO)O2)c(=O)[nH]c1=O")
"inactive"
>>> label("O=C=NCCCCCCN=C=O")
"inactive"
>>> label("Clc1ccccc1C(c1ccccc1)(c1ccccc1)n1ccnc1")
"active"
>>> label("O=C(O)Cn1c(=O)n(Cc2ccc(Br)cc2F)c(=O)c2ccc(Cl)cc21")
"inactive"
>>> label("CCCCCCCCOc1ccc(C(=O)c2ccccc2)c(O)c1")
"inactive"
>>> label("NC(=O)c1nc(-c2cccc(-c3cc(F)ccc3OCC(F)(F)C(F)(F)F)c2)n[nH]1")
"active"
>>> label("CCOC(=O)O[C@H](C)OC(=O)c1ccc2c(c1)cc(C(=O)NC1CCN(C(C)C)CC1)n2Cc1cc(-c2ccc(Cl)s2)on1")
"inactive"
>>> label("CC(C)(C)c1csc(-c2cc3cc(OCc4ccccc4CC(=O)O)ccc3o2)n1")
"active"
>>> label("CCN(Cc1cccc(S(=O)(=O)O)c1)c1ccc(C(=C2C=CC(=[N+](CC)Cc3cccc(S(=O)(=O)O)c3)C=C2)c2ccccc2S(=O)(=O)[O-])cc1")
"inactive"
>>> label("CCN(Cc1cccnc1)C(=O)c1cccc(Cl)c1[C@]1(C)C(=O)N(Cc2ccc(OC)cc2OC)c2ccc(Cl)cc21")
"active"
>>> label("CCCCCCCCCCCCO")
"inactive"
>>> label("CC1(C)NC(=O)N(c2ccc([N+](=O)[O-])c(C(F)(F)F)c2)C1=O")
"inactive"
>>> label("CCCCCCCCCC(=O)O")
"inactive"
>>> label("Cc1cccc2ccccc12")
"inactive"
>>> label("COc1ccc2cc(S(=O)(=O)N[C@H](CC(=O)N[C@H](Cc3ccc(CN4[C@H](C)CCC[C@@H]4C)cc3)C(=O)N(C)C(C)C)c3ccc4c(c3)OCO4)ccc2c1")
"active"
>>> label("c1ccc2n[nH]nc2c1")
"inactive"
>>> label("CCCCCc1ccc(N)cc1")
"inactive"
>>> label("O=c1c(-c2ccc(O)cc2)coc2cc(O)cc(O)c12")
"inactive"
>>> label("Clc1cc(Cl)c2c(c1)N=C1CCCCCN1C2")
"inactive"
>>> label("O=c1ccc2ccccc2o1")
"inactive"
>>> label("Cc1ccc2oc(CN(Cc3ccccc3)C(=O)Nc3c(F)cc(F)cc3F)c(-c3ccc(Cl)cc3)c2c1")
"inactive"
>>> label("CCCOC(=O)c1cc(O)c(O)c(O)c1")
"inactive"
>>> label("O=C(Nc1ccc(Cl)cc1)Nc1ccc(Cl)c(Cl)c1")
"inactive"
>>> label("CC/C(=C(/CC)c1ccc(O)cc1)c1ccc(O)cc1")
"inactive"
>>> label("NCc1cccc(C2CCN(C(=O)c3ccc(C#Cc4ccccc4F)o3)CC2)c1")
"active"
>>> label("Cc1c2ccccc2c(C)c2c1ccc1ccccc12")
"inactive"
>>> label("OC12N=C(c3ccccc3)SC1Cc1cc(Cl)ccc12 (centres undefined)")
"inactive"
>>> label("Oc1ccccc1")
"inactive"
>>> label("c1ccc2ccccc2c1")
"inactive"
>>> label("CCCCCCCCCCCC[N+](C)(C)C")
"inactive"
>>> label("O=C1O[C@H]([C@@H](O)CO)C(O)=C1O")
"inactive"
>>> label("CN1C(=O)CC[C@H]1c1cccnc1")
"inactive"
>>> label("CC1=CC(=O)/C(=C(/C)O)C(=O)O1")
"inactive"
>>> label("C[C@]12CC[C@@H]3c4ccc(O)cc4CC[C@H]3[C@@H]1CCC2=O")
"inactive"
>>> label("COc1cc(C(=O)NC2CCN(C)CC2)ccc1Nc1ncc2c(n1)N(C1CCCC1)CC(F)(F)C(=O)N2C")
"active"
>>> label("CN(C)c1ccc(C(=C2C=CC(=[N+](C)C)C=C2)c2ccc(N(C)C)cc2)cc1")
"active"
>>> label("CCCCCCCC[Si](OCC)(OCC)OCC")
"inactive"
>>> label("CCCCCCCCOC(=O)c1cc(O)c(O)c(O)c1")
"inactive"
